List of pIC50 values.
# system.name: Mcl-1/Bim interaction (recombinant human Mcl-1 residues 171-327) (Homo sapiens (Human))
# run.description: Cell Free Mcl-1:Bim Affinity Assay (Mcl-1 HTRF)
# condition.set: TR-FRET, 0.1 nM Mcl-1(171-327), 0.05 nM biotin-Bim(51-76)
pIC50: −log10 of the molar value.

| compound | pIC50 |
| --- | --- |
| CC(=O)N1CCN2CCN(C[C@H]3CCC[C@H](C)[C@@H](C)S(=O)(=O)NC(=O)c4ccc5c(c4)N(C[C@@H]4CC[C@@H]34)C[C@@]3(CCCc4cc(Cl)ccc43)CO5)C[C@H]2C1 (stereo in doubt) [Example 25] | 9.60 |
| C[C@@H]1[C@@H](C)CCC[C@H](CO)[C@@H]2CC[C@H]2CN2C[C@@]3(CCCc4cc(Cl)ccc43)COc3ccc(cc32)C(=O)NS1(=O)=O (single isomer, unassigned) [Example 23] | 9.74 |
| C[C@@H]1[C@@H](C)CCC[C@H](CN2CCN3CCOC[C@@H]3C2)[C@@H]2CC[C@H]2CN2C[C@@]3(CCCc4cc(Cl)ccc43)COc3ccc(cc32)C(=O)NS1(=O)=O (single isomer, unassigned) [Example 10] | 9.54 |
| C[C@@H]1[C@@H](C)CCC[C@@H](CS(C)(=O)=O)[C@@H]2CC[C@H]2CN2C[C@@]3(CCCc4cc(Cl)ccc43)COc3ccc(cc32)C(=O)NS1(=O)=O (single isomer, unassigned) | 9.30 |

* * *

# system.name: Mcl-1/Bim interaction (recombinant human Mcl-1 residues 171-327) (Homo sapiens (Human))
# run.description: Cell Free Mcl-1:Bim Affinity Assay (Mcl-1 HTRF)
# condition.set: TR-FRET, 0.1 nM Mcl-1(171-327), 0.05 nM biotin-Bim(51-76)
pIC50: −log10 of the molar value.

| compound | system.name | pIC50 |
| --- | --- | --- |
| C[C@@H]1[C@@H](C)CCC[C@H](CC(=O)N(C)C)[C@@H]2CC[C@H]2CN2C[C@@]3(CCCc4cc(Cl)ccc43)COc3ccc(cc32)C(=O)NS1(=O)=O (stereo in doubt) | Mcl-1/Bim interaction (recombinant human Mcl-1 residues 171-327) (Homo sapiens (Human)) | 9.54 |
| C[C@@H]1[C@@H](C)CCC[C@H](C(=O)N2CC(F)(F)C2)[C@@H]2CC[C@H]2CN2C[C@@]3(CCCc4cc(Cl)ccc43)COc3ccc(cc32)C(=O)NS1(=O)=O (single isomer, unassigned) | Mcl-1/Bim interaction (recombinant human Mcl-1 residues 171-327) (Homo sapiens (Human)) | 9.29 |
| C[C@@H]1[C@@H](C)CCC[C@H](CN2CC3(CCCN3C)C2)[C@@H]2CC[C@H]2CN2C[C@@]3(CCCc4cc(Cl)ccc43)COc3ccc(cc32)C(=O)NS1(=O)=O (single isomer, unassigned) [Example 50] | Mcl-1/Bim interaction (recombinant human Mcl-1 residues 171-327) (Homo sapiens (Human)) | 9.03 |
| CC[C@@H](O)[C@@H]1/C=C/C[C@H](C)[C@@H](C)S(=O)(=O)NC(=O)c2ccc3c(c2)N(C[C@@H]2CC[C@H]21)C[C@@]1(CCCc2cc(Cl)ccc21)CO3 (single isomer, unassigned) [Example 49] | Mcl-1/Bim interaction (recombinant human Mcl-1 residues 171-327) (Homo sapiens (Human)) | 9.42 |
| C[C@@H]1[C@@H](C)CCC[C@H](CN2CCN3CCN(C)C[C@@H]3C2)[C@@H]2CC[C@H]2CN2C[C@@]3(CCCc4cc(Cl)ccc43)COc3ccc(cc32)C(=O)NS1(=O)=O (single isomer, unassigned) [Example 19] | Mcl-1/Bim interaction (recombinant human Mcl-1 residues 171-327) (Homo sapiens (Human)) | 9.27 |
| C[C@@H]1[C@@H](C)CCC[C@H](CN2CCN3CCOC[C@H]3C2)[C@@H]2CC[C@H]2CN2C[C@@]3(CCCc4cc(Cl)ccc43)COc3ccc(cc32)C(=O)NS1(=O)=O (single isomer, unassigned) [Example 31] | Mcl-1/Bim interaction (recombinant human Mcl-1 residues 171-327) (Homo sapiens (Human)) | 9.58 |
| C[C@@H]1[C@@H](C)CCC[C@H]([C@H](O)C2CCN(C)CC2)[C@@H]2CC[C@H]2CN2C[C@@]3(CCCc4cc(Cl)ccc43)COc3ccc(cc32)C(=O)NS1(=O)=O (single isomer, unassigned) [Example 68] | Mcl-1/Bim interaction (recombinant human Mcl-1 residues 171-327) (Homo sapiens (Human)) | 9.03 |
| C[C@@H]1[C@@H](C)CCC[C@H]([C@H](O)C2CCN(C)CC2)[C@@H]2CC[C@H]2CN2C[C@@]3(CCCc4cc(Cl)ccc43)COc3ccc(cc32)C(=O)NS1(=O)=O (single isomer, unassigned) [Example 83] | Mcl-1/Bim interaction (recombinant human Mcl-1 residues 171-327) (Homo sapiens (Human)) | 9.26 |
| CC(=O)N1CCN2CCN(C[C@H]3CCC[C@H](C)[C@@H](C)S(=O)(=O)NC(=O)c4ccc5c(c4)N(C[C@@H]4CC[C@@H]34)C[C@@]3(CCCc4cc(Cl)ccc43)CO5)C[C@H]2C1 (single isomer, unassigned) [Example 35] | Mcl-1/Bim interaction (recombinant human Mcl-1 residues 171-327) (Homo sapiens (Human)) | 10.30 |
| C[C@@H]1[C@@H](C)CCC[C@H](CN2CCN3CCN(S(C)(=O)=O)C[C@@H]3C2)[C@@H]2CC[C@H]2CN2C[C@@]3(CCCc4cc(Cl)ccc43)COc3ccc(cc32)C(=O)NS1(=O)=O (stereo in doubt) [Example 30] | Mcl-1/Bim interaction (recombinant human Mcl-1 residues 171-327) (Homo sapiens (Human)) | 9.29 |
| C[C@@H]1[C@@H](C)CCC[C@H](CS(C)(=O)=O)[C@@H]2CC[C@H]2CN2C[C@@]3(CCCc4cc(Cl)ccc43)COc3ccc(cc32)C(=O)NS1(=O)=O (single isomer, unassigned) | Mcl-1/Bim interaction (recombinant human Mcl-1 residues 171-327) (Homo sapiens (Human)) | 9.55 |
| C[C@@H]1[C@@H](C)CCC[C@@H]([C@@H](O)C(F)(F)F)[C@@H]2CC[C@H]2CN2C[C@@]3(CCCc4cc(Cl)ccc43)COc3ccc(cc32)C(=O)NS1(=O)=O (single isomer, unassigned) [Example 87] | Mcl-1/Bim interaction (recombinant human Mcl-1 residues 171-327) (Homo sapiens (Human)) | 7.88 |
| C[C@@H]1[C@@H](C)C/C=C/[C@H](CO)[C@@H]2CC[C@H]2CN2C[C@@]3(CCCc4cc(Cl)ccc43)COc3ccc(cc32)C(=O)NS1(=O)=O (single isomer, unassigned) [Example 24] | Mcl-1/Bim interaction (recombinant human Mcl-1 residues 171-327) (Homo sapiens (Human)) | 9.65 |
| C[C@@H]1[C@@H](C)CCC[C@H](C(=O)O)[C@@H]2CC[C@H]2CN2C[C@@]3(CCCc4cc(Cl)ccc43)COc3ccc(cc32)C(=O)NS1(=O)=O (single isomer, unassigned) [Example 52] | Mcl-1/Bim interaction (recombinant human Mcl-1 residues 171-327) (Homo sapiens (Human)) | 9.97 |
| C[C@@H]1[C@@H](C)CCC[C@H](C)[C@@H]2CC[C@H]2CN2C[C@@]3(CCCc4cc(Cl)ccc43)COc3ccc(cc32)C(=O)NS1(=O)=O (single isomer, unassigned) [Example 89] | Mcl-1/Bim interaction (recombinant human Mcl-1 residues 171-327) (Homo sapiens (Human)) | 7.85 |
| C[C@@H]1[C@@H](C)CCC[C@H](CN2CC(N(C)C)C2)[C@@H]2CC[C@H]2CN2C[C@@]3(CCCc4cc(Cl)ccc43)COc3ccc(cc32)C(=O)NS1(=O)=O (single isomer, unassigned) [Example 13] | Mcl-1/Bim interaction (recombinant human Mcl-1 residues 171-327) (Homo sapiens (Human)) | 9.11 |
| C[C@@H]1[C@@H](C)CCC[C@H](CN2CCN3CCOC[C@H]3C2)[C@@H]2CC[C@H]2CN2C[C@@]3(CCCc4cc(Cl)ccc43)COc3ccc(cc32)C(=O)NS1(=O)=O (stereo in doubt) [Example 14] | Mcl-1/Bim interaction (recombinant human Mcl-1 residues 171-327) (Homo sapiens (Human)) | 9.54 |

* * *

# system.name: Mcl-1/Bim interaction (recombinant human Mcl-1 residues 171-327) (Homo sapiens (Human), UniProt Q07820)
# Sequence (Q07820 171-327): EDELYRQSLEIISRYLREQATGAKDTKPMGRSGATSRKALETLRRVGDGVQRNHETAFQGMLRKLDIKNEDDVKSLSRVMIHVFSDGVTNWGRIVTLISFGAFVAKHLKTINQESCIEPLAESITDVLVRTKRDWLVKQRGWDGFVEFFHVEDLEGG
# run.description: Cell Free Mcl-1:Bim Affinity Assay (Mcl-1 HTRF)
# condition.set: TR-FRET, 0.1 nM Mcl-1(171-327), 0.05 nM biotin-Bim(51-76)
# Procedure: Cell Free Mcl-1:Bim Affinity Assay (Mcl-1 HTRF) The inhibition of the Mcl-1/Bim interaction was measured using a time-resolved fluorescence resonance energy transfer (TR-FRET) assay. […] The reaction plates were further incubated overnight and then were read on an Envision® multimode reader (PerkinElmer). Fluorescence signals were measured at 620 nm (40-nm bandwidth) and 665 nm (7.5-nm bandwidth) with a 60 μs delay after excitation at 320 nm (75-nm bandwidth). […]
pIC50: −log10 of the molar value.
Use 9 as the dividing line for pIC50, with the line itself on the Met side and lower values as Not met.

| compound | group.label |
| --- | --- |
| CC(=O)N1CCN(C[C@H]2CCC[C@H](C)[C@@H](C)S(=O)(=O)NC(=O)c3ccc4c(c3)N(C[C@@H]3CC[C@@H]23)C[C@@]2(CCCc3cc(Cl)ccc32)CO4)CC1 (single isomer, unassigned) [Example 22] | Met |
| CC(=O)N1CCN2CCN(C[C@H]3CCC[C@H](C)[C@@H](C)S(=O)(=O)NC(=O)c4ccc5c(c4)N(C[C@@H]4CC[C@@H]34)C[C@@]3(CCCc4cc(Cl)ccc43)CO5)C[C@H]2C1 (single isomer, unassigned) [Example 4] | Met |
| C[C@@H]1[C@@H](C)CCC[C@@H]([C@H](O)C(F)(F)F)[C@@H]2CC[C@H]2CN2C[C@@]3(CCCc4cc(Cl)ccc43)COc3ccc(cc32)C(=O)NS1(=O)=O (single isomer, unassigned) [Example 86] | Not met |
| COCC[C@@H]1[C@@H](C)CCC[C@H](CO)[C@@H]2CC[C@H]2CN2C[C@@]3(CCCc4cc(Cl)ccc43)COc3ccc(cc32)C(=O)NS1(=O)=O (single isomer, unassigned) [Example 29] | Met |
| C[C@@H]1[C@@H](C)CCC[C@H](CN2CCN3CCN(C)C[C@@H]3C2)[C@@H]2CC[C@H]2CN2C[C@@]3(CCCc4cc(Cl)ccc43)COc3ccc(cc32)C(=O)NS1(=O)=O (single isomer, unassigned) [Example 1] | Met |
